assayed.system: Mitogen-activated protein kinase 14 (Homo sapiens, UniProt Q16539)
Sequence (Q16539 whole entry): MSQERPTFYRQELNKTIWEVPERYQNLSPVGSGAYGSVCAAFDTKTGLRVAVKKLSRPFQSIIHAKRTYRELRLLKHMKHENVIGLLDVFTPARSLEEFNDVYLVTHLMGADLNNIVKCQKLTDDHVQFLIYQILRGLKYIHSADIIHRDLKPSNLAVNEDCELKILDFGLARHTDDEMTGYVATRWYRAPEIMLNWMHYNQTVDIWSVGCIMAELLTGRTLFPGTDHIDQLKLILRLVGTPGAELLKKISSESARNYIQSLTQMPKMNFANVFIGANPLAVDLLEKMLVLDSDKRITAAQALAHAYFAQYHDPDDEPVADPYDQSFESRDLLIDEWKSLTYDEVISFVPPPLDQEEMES
assay.method.text: Inhibition of p38alpha (unknown origin) assessed as phosphorylation of ATF-2 by ELISA
parameter.measured: pIC50
By convention, pIC50 is the negative base-10 log of a molar concentration.

What pIC50 value was documented for this molecule, O=C(O)/C=C\Sc1nc(-c2ccc(F)cc2)c(-c2ccnc(Nc3ccccc3)c2)[nH]1 ? 7.44

And what about the molecule CC(=O)Nc1cc(-c2c(-c3ccc(F)cc3)nc(SC3CCC(C(=O)O)CC3O)n2C)ccn1 (centres undefined) ? 6.12

And what about the molecule CCOC(=O)/C=C/Sc1nc(-c2ccc(F)cc2)c(-c2ccnc(NC(C)=O)c2)n1C1CC1 ? 6.35

More entries:
What pIC50 value was documented for this molecule, COC(Cn1c(SCCC(=O)O)nc(-c2ccc(F)cc2)c1-c1ccnc(NC(C)=O)c1)OC ? 5.77

And what about the molecule CC(=O)Nc1cc(-c2c(-c3ccc(F)cc3)nc(S/C=C\C(=O)O)n2CC(O)CO)ccn1 (centres undefined) ? 6.14

And what about the molecule O=C(O)/C=C/Sc1nc(-c2ccc(F)cc2)c(-c2ccnc(Nc3ccccc3)c2)n1CC1CC1 ? 6.74

And what about the molecule CCOC(=O)/C=C/Sc1nc(-c2ccc(F)cc2)c(-c2ccnc(NC(C)=O)c2)n1CC1CC1 ? 6.18

And what about the molecule CC(=O)Nc1cc(-c2c(-c3ccc(F)cc3)nc(S/C=C\C(=O)O)n2CC2CC2)ccn1 ? 7.52

And what about the molecule COC(Cn1c(S/C=C\C(=O)O)nc(-c2ccc(F)cc2)c1-c1ccnc(NC2CC2)c1)OC ? 6.89

And what about the molecule COC(Cn1c(S/C=C\C(=O)O)nc(-c2ccc(F)cc2)c1-c1ccnc(NC(C)=O)c1)OC ? 6.47
